Reported IC50 values are given for each entry in this list.
target: rat SST-R3 (Rattus norvegicus); assay: Subtype selectivity binding, rat SST-R3; settings: # rows: determined in rat somatostatin receptors; read-out: Concentration (nM) of SST analogs to inhibit SRIF binding by 50%, SST-R 3
Sequence (P30936 whole entry): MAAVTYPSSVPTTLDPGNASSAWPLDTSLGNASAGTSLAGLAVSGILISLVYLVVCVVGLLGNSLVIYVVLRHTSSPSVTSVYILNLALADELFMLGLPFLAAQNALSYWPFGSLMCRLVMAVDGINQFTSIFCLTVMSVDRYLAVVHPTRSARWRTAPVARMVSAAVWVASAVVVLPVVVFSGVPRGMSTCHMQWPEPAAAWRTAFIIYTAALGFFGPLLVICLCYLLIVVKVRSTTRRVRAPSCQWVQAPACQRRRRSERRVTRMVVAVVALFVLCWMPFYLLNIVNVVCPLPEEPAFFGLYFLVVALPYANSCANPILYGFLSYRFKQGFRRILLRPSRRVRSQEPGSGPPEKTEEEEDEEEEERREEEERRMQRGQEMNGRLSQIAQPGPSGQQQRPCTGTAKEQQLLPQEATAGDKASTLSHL
Number in nM, nothing else.

# substance, metric, result_number
records = [
    ("ReO-MA-Dpr(Gly)-βAla-Dab*-Phe-Trp-(D)Trp-Lys-Thr-Phe-GlyC3*-NH2 [PTR 3399]", "IC50", 103),
]

Exercise: Return reported IC50; argument: ReO-MA-Dpr(Gly)-Gly-Dab*-Phe-Trp-(D)Trp-Lys-Thr-Phe-GlyC3*-NH2 [ReO-3397]
Key: 76

Exercise: Return reported IC50; argument: ReO-MA-Gly-Gly-Gly-6-aminohexanoic acid-Dab*-Phe-Trp-(D)Trp-Lys-Thr-Phe-GlyC3*-NH2 [PTR 3401]
Key: 110
